- procedure-text: HPLC stability under degradation conditions (acid, alkali, heat, light, oxidation)
- run-conditions: 1M NaOH added to stock solution, % Remaining, 1M NaOH (0.1 mL, 20 °C, 4h)
property-label: remaining at 4 h (%)

>>> print(df.to_string())
                                   compound    property_label   val
0  C=CCC1C(=O)N(c2cc(OC)c(OC)c(OC)c2)C1c1ccc(OC)c([N+](=O)[O-])c1 (centres unmarked) [10q]  remaining at 4 h  97.8
1  C=CCC1C(=O)N(c2cc(OC)c(OC)c(OC)c2)C1c1ccc(OC)cc1 (centres unmarked) [10h]  remaining at 4 h    96

Reference for the values: paper PMC10385824
